Target Under Test: HCV NS3-NS4A protease (Hepatitis C virus genotype 1a)
Construct: The buffer, KK4A, DTT, and tNS3 were combined
Test Method Notes: HCV Ki Assay (enzyme, Example 5)
Type: biochemical
Assay Setup: Ki values, tested according to Example 5 (enzyme); 5AB substrate, tNS3 with KK4A
pKi: −log10 of the molar value.
# pKi per entry

Worked cases, answers included:
CCC[C@H](NC(=O)[C@@H]1C[C@@H](Oc2ccc(Cl)c(Cl)c2)CN1C(=O)[C@@H](NC(=O)[C@@H](NC(=O)c1cnccn1)C1CCCCC1)C(C)(C)C)C(=O)C(=O)NC1CC1    > 7.00
CCC[C@H](NC(=O)[C@@H]1C[C@@H](Oc2cccc(Cl)c2)CN1C(=O)[C@@H](NC(=O)[C@@H](NC(=O)c1cnccn1)C1CCCCC1)C(C)(C)C)C(=O)C(=O)NC1CC1    6.52 to 7.00
CCCC(NC(=O)[C@H]1C[C@H](Oc2ccc(-c3ccccc3)nn2)CN1C(=O)C(NC(=O)C(NC(=O)c1cnccn1)C1CCCCC1)C(C)(C)C)C(=O)C(=O)NC1CC1 (some centres unmarked)    < 6.52

pKi for CCC[C@H](NC(=O)[C@@H]1C[C@@H](Oc2ccc(C(=O)OC(C)C)cc2)CN1C(=O)[C@@H](NC(=O)[C@@H](NC(=O)c1cnccn1)C1CCCCC1)C(C)(C)C)C(=O)C(=O)NC1CC1 ?
> 7.00

Also, CCC[C@H](NC(=O)[C@@H]1C[C@@H](Oc2nc(C(F)(F)F)nc3ccccc23)CN1C(=O)[C@@H](NC(=O)[C@@H](NC(=O)c1cnccn1)C1CCCCC1)C(C)(C)C)C(=O)C(=O)NC1CC1 please.
6.52 to 7.00

====

# Ki per entry
Target Under Test: HCV NS3-NS4A protease (Hepatitis C virus genotype 1a)
Construct: The buffer, KK4A, DTT, and tNS3 were combined
Test Method Notes: HCV Ki Assay (enzyme, Example 5)
Assay Setup: Ki values, tested according to Example 5 (enzyme); 5AB substrate, tNS3 with KK4A

Ki for CCC[C@H](NC(=O)[C@@H]1C[C@@H](Oc2ccc(F)c(F)c2)CN1C(=O)[C@@H](NC(=O)[C@@H](NC(=O)c1cnccn1)C1CCCCC1)C(C)(C)C)C(=O)C(=O)NC1CC1 [Compound 54] ?
< 0.1 µM

Also, CCC[C@H](NC(=O)[C@@H]1C[C@@H](Oc2ccnc3ccccc23)CN1C(=O)[C@@H](NC(=O)[C@@H](NC(=O)c1cnccn1)C1CCCCC1)C(C)(C)C)C(=O)C(=O)NC1CC1 [Compound 39] please.
< 0.1 µM

Also, CCC[C@H](NC(=O)[C@@H]1C[C@@H](Oc2ccc(OC)cc2Cl)CN1C(=O)[C@@H](NC(=O)[C@@H](NC(=O)c1cnccn1)C1CCCCC1)C(C)(C)C)C(=O)C(=O)NC1CC1 [Compound 64] please.
< 0.1 µM

Also, CCC[C@H](NC(=O)[C@@H]1C[C@@H](Oc2ccc(F)cc2)CN1C(=O)[C@@H](NC(=O)[C@@H](NC(=O)c1cnccn1)C1CCCCC1)C(C)(C)C)C(=O)C(=O)NC1CC1 [Compound 43] please.
< 0.1 µM

Also, CCC[C@H](NC(=O)[C@@H]1C[C@@H](Oc2cccc(OC(F)(F)F)c2)CN1C(=O)[C@@H](NC(=O)[C@@H](NC(=O)c1cnccn1)C1CCCCC1)C(C)(C)C)C(=O)C(=O)NC1CC1 [Compound 16] please.
0.1 to 0.3 µM

====

# pKi per entry
Target Under Test: HCV NS3-NS4A protease (Hepatitis C virus genotype 1a, UniProt P27958)
Construct: The buffer, KK4A, DTT, and tNS3 were combined
Sequence (P27958 1658-1711): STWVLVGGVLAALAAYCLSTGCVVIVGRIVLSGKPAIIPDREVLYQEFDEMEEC
Sequence (P27958 1027-1208): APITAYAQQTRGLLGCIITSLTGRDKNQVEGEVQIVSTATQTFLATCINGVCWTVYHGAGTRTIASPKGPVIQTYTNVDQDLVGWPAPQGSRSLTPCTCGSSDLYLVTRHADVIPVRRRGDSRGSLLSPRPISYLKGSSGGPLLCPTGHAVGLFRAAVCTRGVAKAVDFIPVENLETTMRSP
Test Method Notes: HCV Ki Assay (enzyme, Example 5)
Assay Setup: Ki values, tested according to Example 5 (enzyme); 5AB substrate, tNS3 with KK4A
pKi: −log10 of the molar value.

Worked cases, answers included:
CCC[C@H](NC(=O)[C@@H]1C[C@@H](Oc2ccc(C(F)(F)F)cc2)CN1C(=O)[C@@H](NC(=O)[C@@H](NC(=O)c1cnccn1)C1CCCCC1)C(C)(C)C)C(=O)C(=O)NC1CC1    6.52 to 7.00
CCC[C@H](NC(=O)[C@@H]1C[C@@H](Oc2ccc(Cl)cc2)CN1C(=O)[C@@H](NC(=O)[C@@H](NC(=O)c1cnccn1)C1CCCCC1)C(C)(C)C)C(=O)C(=O)NC1CC1    > 7.00
CCC[C@H](NC(=O)[C@@H]1C[C@@H](Oc2cccc(F)c2)CN1C(=O)[C@@H](NC(=O)[C@@H](NC(=O)c1cnccn1)C1CCCCC1)C(C)(C)C)C(=O)C(=O)NC1CC1    6.52 to 7.00

pKi for CCC[C@H](NC(=O)C1C[C@@H](Oc2cc(C(F)(F)F)cc(C(F)(F)F)c2)CN1C(=O)[C@@H](NC(=O)[C@@H](NC(=O)c1cnccn1)C1CCCCC1)C(C)(C)C)C(=O)C(=O)NC1CC1 (stereo partly shown) ?
< 6.52

Also, CCC[C@H](NC(=O)[C@@H]1C[C@@H](Oc2cccc(Cl)n2)CN1C(=O)[C@@H](NC(=O)[C@@H](NC(=O)c1cnccn1)C1CCCCC1)C(C)(C)C)C(=O)C(=O)NC1CC1 please.
6.52 to 7.00

====

Target Under Test: HCV NS3-NS4A protease (Hepatitis C virus genotype 1a)
Construct: The buffer, KK4A, DTT, and tNS3 were combined
Test Method Notes: HCV Ki Assay (enzyme, Example 5)
Assay Setup: Ki values, tested according to Example 5 (enzyme); 5AB substrate, tNS3 with KK4A
pKi: −log10 of the molar value.
Parameter: pKi

Worked cases, answers included:
CCCC(NC(=O)[C@H]1C[C@H](Oc2ccnc(C(F)(F)F)n2)CN1C(=O)C(NC(=O)C(NC(=O)c1cnccn1)C1CCCCC1)C(C)(C)C)C(=O)C(=O)NC1CC1 (some centres unmarked)    < 6.52
CCC[C@H](NC(=O)[C@@H]1C[C@@H](Oc2ccc([N+](=O)[O-])cn2)CN1C(=O)[C@@H](NC(=O)[C@@H](NC(=O)c1cnccn1)C1CCCCC1)C(C)(C)C)C(=O)C(=O)NC1CC1    6.52 to 7.00
CCC[C@H](NC(=O)[C@@H]1C[C@@H](Oc2ccccc2)CN1C(=O)[C@@H](NC(=O)[C@@H](NC(=O)c1cnccn1)C1CCCCC1)C(C)(C)C)C(=O)C(=O)NC1CC1    > 7.00
CCC[C@H](NC(=O)[C@@H]1C[C@@H](Oc2ccc(C(=O)OC)cc2)CN1C(=O)[C@@H](NC(=O)[C@@H](NC(=O)c1cnccn1)C1CCCCC1)C(C)(C)C)C(=O)C(=O)NC1CC1    > 7.00

Next up:
pKi for CCC[C@H](NC(=O)[C@@H]1C[C@@H](Oc2ccc(C(=O)N3CCNCC3)cc2)CN1C(=O)[C@@H](NC(=O)[C@@H](NC(=O)c1cnccn1)C1CCCCC1)C(C)(C)C)C(=O)C(=O)NC1CC1 ?
6.52 to 7.00

====

Target Under Test: HCV NS3-NS4A protease (Hepatitis C virus genotype 1a)
Construct: The buffer, KK4A, DTT, and tNS3 were combined
Test Method Notes: HCV Ki Assay (enzyme, Example 5)
Assay Setup: Ki values, tested according to Example 5 (enzyme); 5AB substrate, tNS3 with KK4A
Experimental: HPLC Microbore Method for Separation of 5AB Substrate and Products NH2-Glu-Asp-Val-Val-(alpha)Abu-Cys-Ser-Met-Ser-Tyr-COOH A stock solution of 20 mM 5AB (or concentration of your choice) was made in DMSO w/0.2M DTT. This was stored in aliquots at −20 C. Buffer: 50 mM HEPES, pH 7.8; 20% glycerol; 100 mM NaCl Total assay volume was 100 μL The buffer, KK4A, DTT, and tNS3 were combined; distributed 78 μL each into wells of 96 well plate. This was incubated at 30 C for ˜5-10 min. […]
Parameter: Ki

CCC[C@H](NC(=O)[C@@H]1C[C@@H](Oc2ccc(CC#N)cc2)CN1C(=O)[C@@H](NC(=O)[C@@H](NC(=O)c1cnccn1)C1CCCCC1)C(C)(C)C)C(=O)C(=O)NC1CC1    100 to 300 nM
CCC[C@H](NC(=O)C1C[C@@H](Oc2cc(Cl)ccc2Cl)CN1C(=O)[C@@H](NC(=O)[C@@H](NC(=O)c1cnccn1)C1CCCCC1)C(C)(C)C)C(=O)C(=O)NC1CC1 (stereo partly shown)    100 to 300 nM
CCC[C@H](NC(=O)[C@@H]1C[C@@H](Oc2cc(F)cc(F)c2)CN1C(=O)[C@@H](NC(=O)[C@@H](NC(=O)c1cnccn1)C1CCCCC1)C(C)(C)C)C(=O)C(=O)NC1CC1    100 to 300 nM
CCC[C@H](NC(=O)C1C[C@@H](Oc2c(F)cccc2F)CN1C(=O)[C@@H](NC(=O)[C@@H](NC(=O)c1cnccn1)C1CCCCC1)C(C)(C)C)C(=O)C(=O)NC1CC1 (stereo partly shown)    100 to 300 nM
CCCC(NC(=O)[C@H]1C[C@H](Oc2nccc(-c3ccccc3)c2C#N)CN1C(=O)C(NC(=O)C(NC(=O)c1cnccn1)C1CCCCC1)C(C)(C)C)C(=O)C(=O)NC1CC1 (stereo partly shown)    100 to 300 nM
CCCC(NC(=O)[C@H]1C[C@H](Oc2nccc(C(F)(F)F)n2)CN1C(=O)C(NC(=O)C(NC(=O)c1cnccn1)C1CCCCC1)C(C)(C)C)C(=O)C(=O)NC1CC1 (stereo partly shown)    > 300 nM
CCC[C@H](NC(=O)[C@@H]1C[C@@H](Oc2ccc(-c3ccccc3)cc2)CN1C(=O)[C@@H](NC(=O)[C@@H](NC(=O)c1cnccn1)C1CCCCC1)C(C)(C)C)C(=O)C(=O)NC1CC1    < 100 nM
CCC[C@H](NC(=O)[C@@H]1C[C@@H](Oc2ccc(S(=O)(=O)NC)cc2)CN1C(=O)[C@@H](NC(=O)[C@@H](NC(=O)c1cnccn1)C1CCCCC1)C(C)(C)C)C(=O)C(=O)NC1CC1    100 to 300 nM
CCC[C@H](NC(=O)C1C[C@@H](Oc2ccccc2C(F)(F)F)CN1C(=O)[C@@H](NC(=O)[C@@H](NC(=O)c1cnccn1)C1CCCCC1)C(C)(C)C)C(=O)C(=O)NC1CC1 (stereo partly shown)    > 300 nM

Next up:
Ki for CCC[C@H](NC(=O)[C@@H]1C[C@@H](Oc2cc(OC)cc(OC)c2)CN1C(=O)[C@@H](NC(=O)[C@@H](NC(=O)c1cnccn1)C1CCCCC1)C(C)(C)C)C(=O)C(=O)NC1CC1 ?
< 100 nM

The measurements presented in this section are drawn from patent US8217048B2.
